A short record of IC50 observed with PLA2G16 (Homo sapiens) follows.

In: Any idea what IC50 was measured for Cc1cc(C(=O)N(C)C(C)C(=O)C(=O)NCC2CCCCC2)no1 (centres unmarked) [FP 147] ?
Out: < 1000 nM

In: Then O=C(NCC1CC1)C(=O)C1CCC(=O)N1CC1CCCC1 (centres unmarked) [FP 280] ?
Out: < 1000 nM

In: Record: O=C(NCC1CCCCC1)C(=O)C1CCC(=O)N1Cc1ccc2c(c1)CNC2=O (centres unmarked) [FP 244]
Out: < 1000 nM

In: Proceed to COCCC(C(=O)C(=O)NCC1CC1)N(C=O)Cc1ccccc1 (centres unmarked) [FP 70]
Out: < 1000 nM

In: Note, next up: CC(C(=O)C(=O)NCC1CCCCC1)N(C=O)CC1CCOCC1 (centres unmarked) [FP 49]
Out: < 1000 nM

---
In: Data request, read-out IC50, for CCNC(=O)C(=O)C1N(Cc2ccccc2)C(=O)CC12CC2 (centres unmarked) [FP 348]
Out: < 1000 nM

In: Same thing, different molecule: COc1ccccc1N(C=O)C(C(=O)C(=O)NCc1cccc(Cl)c1)c1ccccc1 (centres unmarked) [FP 10]
Out: 1000 to 10000 nM

In: Another: CC(C)(O)CNC(=O)C(=O)C1CCC(=O)N1Cc1ccc(Cl)cc1 (centres unmarked) [FP 274]
Out: < 1000 nM

In: Also CC(OCC(C)(C)C)C(=O)C(=O)NCC1CC1 (centres unmarked) [FP 122] ?
Out: 1000 to 10000 nM

In: Now consider CC(C(=O)C(=O)NCC1CC1)N(Cc1ccccc1)S(C)(=O)=O (centres unmarked) [FP 222] .
Out: < 1000 nM

In: Same read-out for COCC(=O)N(c1ccccc1OC)C(C)C(=O)C(=O)NCc1cccc(Cl)c1 (centres unmarked) [FP 175] ?
Out: < 1000 nM

In: Proceed to CC(NC(=O)c1ccccc1)C(=O)C(=O)NCC1CCC1 (centres unmarked) [FP 181]
Out: < 1000 nM

In: Record: CCC(=O)N(c1ccccc1OC)C(C)C(=O)C(=O)NCc1cccc(Cl)c1 (centres unmarked) [FP 141]
Out: < 1000 nM

In: Next up: CC(C(=O)C(=O)NCC1CCCCC1)N(C=O)c1cc[nH]c(=O)c1 (centres unmarked) [FP 192]
Out: < 1000 nM

In: Further, for CC(C(=O)C(=O)NC1CC1)N(C=O)Cc1ccccc1 (centres unmarked) [FP 44] ?
Out: < 1000 nM

In: // repeat for CC(OC1CCCCC1)C(=O)C(=O)NCC1CC1 (centres unmarked) [FP 120] and report
Out: < 1000 nM

In: Try this molecule next: O=C(NCC1CC1)C(=O)C1CCC(=O)N1CCc1ccccc1 (centres unmarked) [FP 253]
Out: < 1000 nM

In: Next entry: CCC(NC(=O)c1ccccc1)C(=O)C(=O)NCC1CC1 (centres unmarked) [FP 155]
Out: < 1000 nM

In: Also Cc1noc(CCNC(=O)C(=O)[C@H]2CCC(=O)N2Cc2ccccc2)n1 [FP 293] , if possible.
Out: < 1000 nM

In: Another molecule: O=CN(Cc1ccccc1)[C@@H](Cc1cn(C(c2ccccc2)(c2ccccc2)c2ccccc2)cn1)C(=O)C(=O)NCC1CCCCC1 [FP 116]
Out: < 1000 nM

====

Tested on: picornaviruses (CVB1, HRV-A2, HRV-A23, EV-68)
TEST: Anti-picornavirus cytopathic effect (CPE) reduction assay on HeLa H1 cells
Assay type: cell-based
CONDITION_SET: Enterovirus B, HeLa H1, 48 h, HeLa H1 cells, 48 h, category from averaging the EC50 values from four picornaviruses (CVB1, HRV-A2, HRV-A23, EV68); read-out: EC50 values of the compounds determined in the anti-picornavirus assay
pEC50: −log10 of the molar value.
Below, each entry is listed with its recorded pEC50.

Some entries whose results are on file:
In: Item O=C(NCC1CCOCC1)C(=O)C1CCC(=O)N1Cc1ccc(Cl)cc1 (stereo not shown) has what recorded pEC50?
Out: 5.00 to 6.00

In: Please give the result for O=CN(Cc1ccccc1)[C@@H](Cc1c[nH]cn1)C(=O)C(=O)NCC1CCCCC1 too.
Out: 5.00 to 6.00

In: Same read-out for CC(C)OCCNC(=O)C(=O)[C@H]1CCC(=O)N1Cc1ccccc1 ?
Out: 5.00 to 6.00

In: Do the same for CC(C)C(=O)N(C)CCNC(=O)C(=O)[C@H]1CCC(=O)N1Cc1ccccc1 please
Out: 5.00 to 6.00

In: Request: CC(NC(=O)c1ccccc1)C(=O)C(=O)NCC1CC1 (stereo not shown)
Out: 5.00 to 6.00

In: Input COc1ccccc1N(C=O)C(C)C(=O)C(=O)NCc1cccnc1 (stereo not shown)
Out: < 5.00

In: Ok, now O=C(NC1CCC1)C(=O)[C@H]1CCC(=O)N1Cc1ccccc1
Out: > 6.00

In: Would you kindly repeat that for O=C(NCc1cccc(=O)[nH]1)C(=O)C1CCC(=O)N1Cc1ccc(Cl)cc1 (stereo not shown) ?
Out: 5.00 to 6.00

In: Would you kindly repeat that for CC(C)CNC(=O)C(=O)C(C)N(C=O)Cc1ccccc1 (stereo not shown) ?
Out: 5.00 to 6.00

In: Okay, and CC1(C)CC(=O)N(Cc2ccccc2)C1C(=O)C(=O)NC1CC1 (stereo not shown) ?
Out: 5.00 to 6.00

New cases:
In: Any idea what pEC50 was measured for O=C(N[C@@H]1CCCC[C@@H]1O)C(=O)[C@H]1CCC(=O)N1Cc1ccccc1 (single isomer, unassigned) ?
Out: < 5.00

In: Try the compound O=C(NCCCO)C(=O)C1CCC(=O)N1Cc1ccc(Cl)cc1 (stereo not shown)
Out: < 5.00

In: Now give it for CC(C(=O)C(=O)NCC1CC1)N(C=O)Cc1ccccc1 (stereo not shown) too.
Out: > 6.00

In: // repeat for CC(C(=O)C(=O)NCC1CCCCC1)N(C=O)CC1CCN(C(=O)OC(C)(C)C)CC1 (stereo not shown) and report
Out: 5.00 to 6.00

In: Could you do the same for O=C(NCC1(CO)CC1)C(=O)C1CCC(=O)N1Cc1ccc(Cl)cc1 (stereo not shown) , please?
Out: 5.00 to 6.00

In: Continue with O=CN(Cc1ccccc1)[C@@H](Cc1cn(C(c2ccccc2)(c2ccccc2)c2ccccc2)cn1)C(=O)C(=O)NCC1CC1
Out: > 6.00

In: Could you do the same for CCC(NC(=O)c1ccccc1)C(=O)C(=O)NC1CC1 (stereo not shown) , please?
Out: < 5.00

In: Quick one: COc1ccccc1OC(C)C(=O)C(=O)NC(C)C (stereo not shown)
Out: 5.00 to 6.00

In: What do you get for CC(C)NC(=O)[C@H]1C[C@H](NC(=O)C(=O)[C@H]2CCC(=O)N2Cc2ccccc2)C1 ?
Out: 5.00 to 6.00

====

Recorded pIC50 by entry
SYSTEM_NAME: PLA2G16 (Homo sapiens)
Sequence (P53816 1-162): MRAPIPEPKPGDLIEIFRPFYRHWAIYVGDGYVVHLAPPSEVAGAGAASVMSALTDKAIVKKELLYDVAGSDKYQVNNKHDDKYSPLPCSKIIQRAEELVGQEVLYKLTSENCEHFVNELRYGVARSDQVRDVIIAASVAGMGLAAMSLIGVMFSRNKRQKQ
pIC50: −log10 of the molar value.

In: For the compound O=C(NCCN1CCCCC1=O)C(=O)[C@H]1CCC(=O)N1Cc1ccccc1 [FP 292] , what pIC50 is on record?
Out: > 6.00

In: Here is the next compound: C[C@@H](O)CNC(=O)C(=O)C1CCC(=O)N1Cc1ccc(Cl)cc1 (stereo partly shown) [FP 259]
Out: > 6.00

In: Same read-out for CC(NC(=O)C1CCCCC1)C(=O)C(=O)NCC1CC1 (stereo not shown) [FP 161] ?
Out: > 6.00

In: Also, CC(C)(C)C(=O)N1CCC(NC(=O)C(=O)[C@H]2CCC(=O)N2Cc2ccccc2)CC1 [FP 314] please.
Out: > 6.00

In: And then Cc1ccccc1C(=O)N[C@@H](C)C(=O)C(=O)NCC1CC1 (single isomer, unassigned) [FP 157] , what is it?
Out: > 6.00

New cases:
In: # pIC50 lookup, item C[C@@H]1CC(=O)N(Cc2ccccc2)[C@@H]1C(=O)C(=O)NC1CC1 (single isomer, unassigned) [FP 338]
Out: > 6.00

In: Could you do the same for CC(=O)N1CCC(CN(C=O)C(C)C(=O)C(=O)NCC2CCCCC2)CC1 (stereo not shown) [FP 79] , please?
Out: 5.00 to 6.00

In: Request: CC(NS(=O)(=O)Cc1ccccc1)C(=O)C(=O)NCC1CC1 (stereo not shown) [FP 188]
Out: > 6.00

In: Field entry: O=C(NC1CC1)C(=O)C1CCC(=O)N1CCc1ccccc1 (stereo not shown) [FP 251]
Out: > 6.00

In: Next compound up: O=C(N[C@H]1CCCC[C@H]1O)C(=O)[C@H]1CCC(=O)N1Cc1ccccc1 (single isomer, unassigned) [FP 273]
Out: 5.00 to 6.00

In: # iterate: COc1cccc(N(C=O)C(C)C(=O)C(=O)NCc2cccc(Cl)c2)c1 (stereo not shown) [FP 4]
Out: > 6.00
